Positive rate (%) for assorted binders
biological target: T1, human CD8α full-length protein (human, UniProt P01732 22-235); test: flow cytometry on MC38-CD8α cells, secondary antibody-PE
T1 construct: whole, on cells; The same entry is used for MC38-CD8α transfectants and for human CD8+ T cells from peripheral blood; the assay field says which cells; also called cell surface CD8α; MC38-CD8α cells
T1 sequence (P01732 22-235): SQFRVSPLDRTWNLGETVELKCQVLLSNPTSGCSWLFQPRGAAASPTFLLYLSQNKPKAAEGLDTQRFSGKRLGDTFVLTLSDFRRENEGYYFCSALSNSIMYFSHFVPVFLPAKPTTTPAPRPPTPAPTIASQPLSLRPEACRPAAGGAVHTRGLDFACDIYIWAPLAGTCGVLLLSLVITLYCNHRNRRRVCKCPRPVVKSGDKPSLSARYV

Input: Find the recorded Positive rate (%) belonging to anti-CD8α single domain antibody S6 (VHH, not shown: small tags and cut ends, Only the E. coli expression is described for this antibody) VHH: QVQLVESGGGLVQPGGSLRLSCAVSGTIFSINTMGWYRQVPGKQRELVATITSSGSTKYADSVKGRFTVSRDNAKRTVFLQMDSLKPEDTAVYYCHANDVGWGTVNAWGQGTLVTVSS and report it.
Output: 97.5%

More entries:
Input: Find the recorded Positive rate (%) belonging to S36-cHis antibody (VHH, HEK293 construct; an E. coli preparation is also described) VHH: QVQLVESGGGLVQAGGSLRLSCAASIRTFSDYAMAWFRQGPRKEREFVAAISWNGVTTFYADSVKGRFTISRDDAKNSVYLQMNSLKPEDTAVYYCAGGLNVGWGTHEREYDDWGQGTQVTVSS and report it.
Output: 99.7%

Data credit: patent US20240209089A1
